# ASSAYED_TARGET: SARS-COV-2 RBD (SARS-COV-2, UniProt P0DTC2 319-539)
# PROCEDURE_DETAILS: ELISA, RBD coated
TEST_READOUT: EC50 (ng/mL)
Enter your answer as a number in ng/mL; do not include the unit.

BINDER	EC50 / ng/mL
C533 (antibody, V domains shown) VH: EVQLVESGGSLVKPGGSLRLSCVASGLTFNHAWMSWVRQAPGKGLEWVGRIKSKIDGGTTDYAAPVKGRFTISRDDSKSTQYLQMNSLKTEDTAVYYCTTDCFWRLGGTTCYEHDAFDVWGQGTMVTVSS VL: DIQMTQSPSSLSASVGDRVTITCRASQAIATFLNWYQQKPGKAPKLLIYAASSLQSGVPSRFSGSGSGTDFTLTISNLQPEDFATYYCQQSYNSLHFGGGTKVEIK	1.61

INPUT: Which EC50 is listed for C514 (antibody, V domains shown) VH: EVQLVESGGGLVQPGGSLRLSCAASEFIVTRNYMSWVRQAPGKGLEWVSLIYPGGSTFYADSVKGRFTISRDNSKNTLFLHMNSLRAEDTAVYYCARDLAGRLDYWGQGTLVTVSS VL: DIQMTQSPSSLSASVGDRVTITCQASQDINNFLNWYQQKPGKAPKLLIYDASNLETGVPSRFSGSGSGTDFTFTISSLQPEDIAIYYCQQYDSLSRLTFGGGTKVEIK ?
OUTPUT: 0.82

INPUT: Which EC50 is listed for C539 (antibody, V domains shown) VH: EVQLVESGGGLVQPGRSLRLSCAASGFTFDDYALHWVRQAPGKGLEWVSGISWNGDSIGYADSVKGRFTISRDNAKNSLSLQMNSLTAEDTALYYCAKGVEYSSSSNCDYWGQGTLVTVSS VL: DIQMTQSPSSVSASVGDRVTITCRASQDISSWLAWYQQKPGKAPKLLISLASGLQSGVPSRFSGSGSETDFTLTISSLQPEDFATYYCQQTNSFPLTFGGGTKVEI ?
OUTPUT: 1.3

Where do these numbers come from? They come from patent US20240218057A1.
